The reported measurements were obtained from PubChem BioAssay (NCI).

# System: NCI-H23 lung
# protocol.summary: NCI-60 one-dose screen, 48 h
# setup.conditions: 10 µM unless noted
Compounds without any hit were thinned out: in the full panel of roughly 83,000, 20% have a hit. Calls of active or inactive are those of the source. The calls were made as follows: active = growth percent below 10; inactive = the rest.
Form entry, call: pick from true (active), false (inactive)

**Q:** Call for entry COC1=C(C)C(=O)C2=C(C1=O)C(CO)N1C(C#N)C3CC4C(C1C2N1CCOC41)N3C (stereo not given) :
**A:** true

**Q:** Call for entry CC1=C(CO)C2=C(C)C3(CC3)[C@@](C)(O)C(=O)C2=C1 :
**A:** true

**Q:** Call for entry COc1ccc(OC)c(/C=C/[N+](=O)[O-])c1 :
**A:** true

**Q:** Call for entry Cc1ccc(C(=O)OC(C(=O)O)C(OC(=O)c2ccc(C)cc2)C(=O)O)cc1 (stereo not given) (tested in a mixture with another compound) :
**A:** false

**Q:** Call for entry O=C1c2ccccc2C(=O)C(Cl)C1Cl (stereo not given) :
**A:** false
